- Tested On: T1, huFLT3-M227 stably expressed on Ramos cells (human, UniProt P36888 27-993)
- T1 construct: whole, on cells; also called FLT3 Mutant
- T1 sequence (P36888 27-993 T227M): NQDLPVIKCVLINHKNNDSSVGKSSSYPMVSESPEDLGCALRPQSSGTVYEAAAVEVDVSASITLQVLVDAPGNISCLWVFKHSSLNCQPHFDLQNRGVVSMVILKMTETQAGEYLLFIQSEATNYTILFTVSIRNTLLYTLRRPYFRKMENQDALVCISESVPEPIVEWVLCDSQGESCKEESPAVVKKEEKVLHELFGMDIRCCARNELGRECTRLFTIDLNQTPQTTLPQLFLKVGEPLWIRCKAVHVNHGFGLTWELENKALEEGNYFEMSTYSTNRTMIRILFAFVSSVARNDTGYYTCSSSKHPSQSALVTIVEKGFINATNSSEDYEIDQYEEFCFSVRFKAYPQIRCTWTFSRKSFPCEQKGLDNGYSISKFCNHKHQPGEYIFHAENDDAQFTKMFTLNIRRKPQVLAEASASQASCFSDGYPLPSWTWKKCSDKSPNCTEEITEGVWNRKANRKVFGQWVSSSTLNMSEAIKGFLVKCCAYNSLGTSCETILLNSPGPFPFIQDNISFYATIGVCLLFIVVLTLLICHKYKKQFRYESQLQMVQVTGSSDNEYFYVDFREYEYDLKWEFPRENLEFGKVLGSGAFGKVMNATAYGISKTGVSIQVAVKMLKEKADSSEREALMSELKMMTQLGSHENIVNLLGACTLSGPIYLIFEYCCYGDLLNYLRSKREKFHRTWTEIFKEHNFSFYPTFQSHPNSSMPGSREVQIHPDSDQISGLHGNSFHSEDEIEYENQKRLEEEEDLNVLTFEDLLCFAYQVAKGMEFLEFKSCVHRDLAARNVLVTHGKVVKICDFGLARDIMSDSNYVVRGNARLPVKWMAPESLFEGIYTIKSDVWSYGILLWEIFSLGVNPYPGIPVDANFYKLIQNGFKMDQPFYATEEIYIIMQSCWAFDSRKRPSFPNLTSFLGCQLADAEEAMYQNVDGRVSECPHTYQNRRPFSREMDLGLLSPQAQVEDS
- Assay Text: FACS on cells
FACS geometric mean fold change over Jurkat parental overview
Observable: FACS geometric mean fold change over Jurkat parental

Binder	Value
Polypeptide No. 245 (scFv, V domains shown, scFv) VH: QVQLVQSGAEVKKPGSSVKVSCKASGYTFTGFYIHWVRQAPGQGLEWMGGVIPFFSRTIYAQKFQGRVTITADESTSTAYMELSSLRSEDTAVYYCAYGANGHLYGMDAWGQGTTVTVSS VL: EIVMTQSPATLSVSPGERATLSCRASQSVSSSYLAWYQQKPGQAPRLLIYGASTRATGIPARFSGSGSGTEFTLTISSLQSEDFAVYYCQQYSSSPLTFGQGTKVEIKR	2 to 10 fold
Polypeptide No. 269 (scFv, V domains shown, scFv) VH: QVQLVQSGAEVKKPGASVKVSCKASGGSFSSYALHWVRQAPGQGLEWMGLINPSGGRTSYAQKFQGRVTMTRDTSTSTVYMELSSLRSEDTAVYYCARDEGYATFDYWGQGTLVTVSS VL: EIVMTQSPATLSVSPGERATLSCRASQSISSSYLAWYQQKPGQAPRLLIYDVSARATGIPARFSGSGSGTEFTLTISSLQSEDFAVYYCQQYYSTPLTFGPGTKVDIKR	10 to 30 fold
Polypeptide No. 281 (scFv, V domains shown, scFv) VH: QVQLVQSGAEVKKPGASVKVSCKASGYTFNSYGISWVRQAPGQGLEWMGIINPTGGSTTYAQKFQGRVTMTRDTSTSTVYMELSSLRSEDTAVYYCAKDPFVMDVWGQGTTVTVSS VL: EIVMTQSPATLSVSPGERATLSCRASQSVSSSYLAWYQQKPGQAPRLLIYDASARAAGIPARFSGSGSGTEFTLTISSLQSEDFAVYYCQQYYSTPYTFGQGTKLEIKR	2 to 10 fold
Polypeptide No. 202 (scFv, V domains shown, scFv) VH: QVQLVQSGAEVKKPGASVKVSCKASGYTFTNYYMHWVRQAPGQGLEWMGVINPSGGSTNYAQKFQGRVTMTRDTSTSTVYMELSSLRSEDTAVYYCARAGVGAFHIWGQGTMVTVSS VL: DIQMTQSPSSLSASVGDRVTITCRASQSIRSWLAWYQQKPGKAPKLLIYDASNLETGVPSRFSGSGSGTDFTLTISSLQPEDFATYYCQQIYSLPRTFGQGTKVEIKR	2 to 10 fold
Polypeptide No. 273 (scFv, V domains shown, scFv) VH: QVQLVQSGAEVKKPGSSVKVSCKASGDTFNSYAVNWVRQAPGQGLEWMGGIIPSFGTPTYAWKFQGRVTITADESTSTAYMELSSLRSEDTAVYYCASVSYGSFDYWGQGTLVTVSS VL: EIVMTQSPATLSVSPGERATLSCRASQSVSSSSLAWYQQKPGQAPRLLIYDASTRASGIPARFSGSGSGTEFTLTISSLQSEDFAVYYCQQYNRLPYTFGQGTKLEIKR	10 to 30 fold
Polypeptide No. 241 (scFv, V domains shown, scFv) VH: QVQLVQSGAEVKKPGASVKVSCKASGYTFTRHYVHWVRQAPGQGLEWMGIINPSGGSTSYAQKFQGRVTMTRDTSTSTVYMELSSLRSEDTAVYYCARSYHHYYYGMDVWGQGTTVTVSS VL: DIQMTQSPSSLSASVGDRVTITCRASQSISNYLAWYQQKPGKAPKLLIYAASSLQGGVPSRFSGSGSGTDFTLTISSLQPEDFATYYCQQSYSTPWTFGQGTKVEIKR	10 to 30 fold
Polypeptide No. 257 (scFv, V domains shown, scFv) VH: QVQLVQSGAEVKKPGASVKVSCKASGYTFTNYFMHWVRQAPGQGLEWMGIINPSGGSTSYAQKFQGRVTMTRDTSTSTVYMELSSLRSEDTAVYYCARAHTVYYYGMDVWGQGTMVTVSS VL: DIQMTQSPSSLSASVGDRVTITCRASQSISSWLAWYQQKPGKAPKLLIYAASTLQSGVPSRFSGSGSGTDFTLTISSLQPEDFATYYCQQSYSTPWTFGQGTKLEIKR	10 to 30 fold
Polypeptide No. 244 (scFv, V domains shown, scFv) VH: QVQLVQSGAEVKKPGASVKVSCKASGYTFTSYYMHWVRQAPGQGLEWMGRINPSGGSTSYAQSFQGRVTMTRDTSTSTVYMELSSLRSEDTAVYYCARVPGLYGGAIDYWGQGTLVTVSS VL: DIQMTQSPSSLSASVGDRVTITCRASQDIRNDLGWYQQKPGKAPKLLIYAASSLQSGVPSRFSGSGSGTDFTLTISSLQPEDFATYYCQQSYSSPFTFGQGTKVEIKR	> 30 fold
Polypeptide No. 290 (scFv, V domains shown, scFv) VH: QVQLVQSGAEVKKPGASVKVSCKASGGTFTSYYMHWVRQAPGQGLEWMGWISAYNGKTDYAQKFQGRVTMTRDTSTSTVYMELSSLRSEDTAVYYCARDQGYYYDSSGAFDIWGQGTLVTVSS VL: DIQMTQSPSSLSASVGDRVTITCRASQSISSYLNWYQQKPGKAPKLLIYDASNLETGVPSRFSGSGSGTDFTLTISSLQPEDFATYYCQQTYSAPPTFGQGTKLEIKR	10 to 30 fold
Polypeptide No. 242 (scFv, V domains shown, scFv) VH: QVQLVQSGAEVKKPGSSVKVSCKASGGTFSSATISWVRQAPGQGLEWMGGIIPMFGTANYAQKFQGRVTITADESTSTAYMELSSLRSEDTAVYYCARDAYGDSTWGQGTLVTVSS VL: EIVMTQSPATLSVSPGERATLSCRASESVSSALAWYQQKPGQAPRLLIYGASTRATGIPARFSGSGSGTEFTLTISSLQSEDFAVYYCQQYGNSVTFGGGTKVEIKR	> 30 fold
